target: HPK1 (MAP4K1) (Homo sapiens); assay: FRET Assay for HPK1 (MAP4K1): one step binding assay, displacement of labeled tracer; conditions: 10 μM compound; FRET ratio 665/620, percent of control
Sequence (Q92918 whole entry): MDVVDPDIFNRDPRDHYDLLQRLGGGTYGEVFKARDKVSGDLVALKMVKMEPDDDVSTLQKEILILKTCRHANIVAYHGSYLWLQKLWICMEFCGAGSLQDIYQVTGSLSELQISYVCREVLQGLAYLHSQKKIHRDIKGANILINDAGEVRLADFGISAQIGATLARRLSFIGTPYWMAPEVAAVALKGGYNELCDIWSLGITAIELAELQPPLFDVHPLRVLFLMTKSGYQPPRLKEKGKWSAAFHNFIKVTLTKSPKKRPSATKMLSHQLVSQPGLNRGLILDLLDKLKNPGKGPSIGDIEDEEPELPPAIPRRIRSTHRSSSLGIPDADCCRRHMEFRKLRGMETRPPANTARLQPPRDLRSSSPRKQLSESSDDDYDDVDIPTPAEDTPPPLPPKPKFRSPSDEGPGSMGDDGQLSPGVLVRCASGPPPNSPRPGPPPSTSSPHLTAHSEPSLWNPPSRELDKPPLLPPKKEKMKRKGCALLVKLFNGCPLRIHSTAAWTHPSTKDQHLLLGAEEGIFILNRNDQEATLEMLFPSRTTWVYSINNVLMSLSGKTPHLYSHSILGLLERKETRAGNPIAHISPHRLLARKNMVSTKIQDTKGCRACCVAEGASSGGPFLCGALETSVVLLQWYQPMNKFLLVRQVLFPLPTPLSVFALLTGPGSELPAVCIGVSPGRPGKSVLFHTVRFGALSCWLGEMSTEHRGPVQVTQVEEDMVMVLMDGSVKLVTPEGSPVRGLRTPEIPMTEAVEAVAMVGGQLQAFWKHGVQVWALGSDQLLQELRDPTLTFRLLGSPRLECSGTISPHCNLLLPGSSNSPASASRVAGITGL
ASSAY_METRIC: inhibition at 10 µM (%)

{"columns": ["SMILES_CODE", "UNIT_DESCRIPTOR", "inhibition at 10 µM"],
 "data": [
  ["COc1cccc(F)c1-c1cc2c(cn1)NC(=O)/C2=C(/C)Nc1ccn(C(C)(C)C#N)n1", "%", 76.4],
  ["C/C(Nc1ccc(N2CCNCC2)nc1)=C1/C(=O)Nc2cnc(-c3cnccc3C)cc21", "%", 87.3],
  ["C/C(Nc1ccn(C[C@@H](C)O)n1)=C1/C(=O)Nc2cnc(-c3cnccc3C)cc21", "%", 78.9],
  ["C/C(Nc1ccn(CC(C)(C)O)n1)=C1/C(=O)Nc2cnc(-c3c(C)cccc3F)cc21", "%", 85.9]
]}
